target: M1 muscarinic receptor (Homo sapiens, UniProt P11229); test: biochemical; assay type: binding; conditions: competition with [^3H]QNB, M1, experiment 3; read-out: IC50—3
Sequence (P11229 whole entry): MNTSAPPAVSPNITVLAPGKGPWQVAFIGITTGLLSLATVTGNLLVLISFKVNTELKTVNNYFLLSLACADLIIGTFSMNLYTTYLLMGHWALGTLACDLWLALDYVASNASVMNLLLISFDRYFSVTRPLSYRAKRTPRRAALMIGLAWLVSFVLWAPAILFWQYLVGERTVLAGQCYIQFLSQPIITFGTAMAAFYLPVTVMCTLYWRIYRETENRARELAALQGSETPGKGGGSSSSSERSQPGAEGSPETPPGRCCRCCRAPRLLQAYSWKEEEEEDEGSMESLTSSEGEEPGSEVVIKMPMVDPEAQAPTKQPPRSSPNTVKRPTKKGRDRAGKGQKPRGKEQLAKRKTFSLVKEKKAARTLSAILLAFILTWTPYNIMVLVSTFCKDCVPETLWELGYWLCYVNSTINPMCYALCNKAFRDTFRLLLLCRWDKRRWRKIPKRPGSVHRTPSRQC
Measured attribute: IC50 (µM)
Just the number in µM, nothing appended.

Query string: Quick one: IC50 of CCCCOc1ccc(C(=O)OCC[N+]2(C)CCCCC2)cc1.[I-] ?
Result string: 8.19

* * *

target: M3 muscarinic receptor (Homo sapiens); construct: host or cells: Chinese hamster ovary cells; assay: biochemical; format: binding; details: competition with [^3H]QNB, M3, experiment 1; read-out: IC50—1
Sequence (P20309 whole entry): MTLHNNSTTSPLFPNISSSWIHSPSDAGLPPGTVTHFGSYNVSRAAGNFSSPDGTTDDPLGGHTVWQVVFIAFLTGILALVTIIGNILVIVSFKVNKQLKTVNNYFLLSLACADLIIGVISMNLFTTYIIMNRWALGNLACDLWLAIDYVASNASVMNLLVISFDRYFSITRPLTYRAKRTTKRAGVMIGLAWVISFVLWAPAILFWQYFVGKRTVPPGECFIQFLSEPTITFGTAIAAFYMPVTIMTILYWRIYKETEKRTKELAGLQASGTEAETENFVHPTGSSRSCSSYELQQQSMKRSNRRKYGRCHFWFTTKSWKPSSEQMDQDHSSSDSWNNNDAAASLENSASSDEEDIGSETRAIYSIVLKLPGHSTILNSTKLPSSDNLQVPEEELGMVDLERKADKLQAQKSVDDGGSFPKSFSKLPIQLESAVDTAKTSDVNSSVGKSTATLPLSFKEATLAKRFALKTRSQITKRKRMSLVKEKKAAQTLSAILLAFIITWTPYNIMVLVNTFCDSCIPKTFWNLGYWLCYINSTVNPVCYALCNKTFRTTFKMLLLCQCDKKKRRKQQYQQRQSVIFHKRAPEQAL
Measured attribute: pIC50
// pIC50 here means minus log10 of the molar concentration (mol/L)

Query string: Quick one: pIC50 of CCCCOc1ccc(C(=O)OCC[N+]2(C)CCCCC2)cc1.[I-] ?
Result string: 4.40
